target.under.test: T1, HCoV-OC43 Nucleocapsid (N) protein (2X-StrepTag tagged) (HCoV-OC43, UniProt P33469 1-448)
T1 construct: also called rN; HCoV-OC43 rN; source: HEK293-FT, transfected, in crude lysate; not shown: 2X-StrepTag, C-terminal, kept
T1 sequence: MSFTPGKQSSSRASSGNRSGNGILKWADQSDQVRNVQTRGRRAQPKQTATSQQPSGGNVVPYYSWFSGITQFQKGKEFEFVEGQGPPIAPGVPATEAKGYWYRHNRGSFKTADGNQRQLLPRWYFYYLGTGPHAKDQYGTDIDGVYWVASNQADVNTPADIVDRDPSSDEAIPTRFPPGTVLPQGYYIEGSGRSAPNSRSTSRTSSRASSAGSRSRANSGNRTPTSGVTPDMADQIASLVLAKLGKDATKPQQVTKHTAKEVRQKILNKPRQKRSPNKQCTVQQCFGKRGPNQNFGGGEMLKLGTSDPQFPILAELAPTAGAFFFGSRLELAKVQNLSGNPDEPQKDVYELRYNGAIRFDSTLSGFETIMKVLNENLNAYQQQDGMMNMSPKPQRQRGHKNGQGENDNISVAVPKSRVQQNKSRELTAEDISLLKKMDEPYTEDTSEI
assay.notes: BLI
test.parameters: one partner purified
endpoint: kon (M⁻¹ s⁻¹)
Give the quantity in M⁻¹ s⁻¹, number only.

binder	kon (M⁻¹ s⁻¹)
CCL25 (ligand, recombinant human CCL25; source: bought: PeproTech) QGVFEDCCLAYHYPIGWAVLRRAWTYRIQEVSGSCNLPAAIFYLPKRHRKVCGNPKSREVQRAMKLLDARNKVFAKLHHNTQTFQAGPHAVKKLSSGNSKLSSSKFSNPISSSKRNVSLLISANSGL	8300

Then this binder:
Bench note: what kon did CXCL11 (ligand, recombinant human CXCL11; source: bought: PeproTech) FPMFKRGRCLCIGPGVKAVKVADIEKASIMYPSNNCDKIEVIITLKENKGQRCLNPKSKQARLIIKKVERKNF show?
18000
